Test system: S. aureus R2
protocol_text: Staphylococcus MIC
Format: cell-based
applied_conditions: second Table 5 (Example 5), strain 00-42-1066
Quick list: MIC per entry.

molecule	test_target	MIC
N#Cc1cccc(NC(=O)c2cc(C(=O)c3ccc(-c4ccccc4)cc3)ccc2O)c1 [BPAmC, reference compound]	S. aureus R2	> 50 µg/mL
O=C(c1ccc(-c2ccccc2)cc1)c1ccc(O)c(C(=O)Nc2cccc(C(F)(F)F)c2)c1 [BPAmF, reference compound]	S. aureus R2	> 50 µg/mL
N#Cc1cccc(NC(=O)c2cc(C(=O)c3cccc4ccccc34)ccc2O)c1 [NA1mC]	S. aureus R2	6.3 µg/mL
O=C(Nc1cccc(C(F)(F)F)c1)c1cc(C(=O)c2cccc3ccccc23)ccc1O [NA1mF]	S. aureus R2	1.6 µg/mL

Next item in the queue.
The recorded MIC for entry CCCCc1ccc(C(=O)c2ccc(O)c(C(=O)Nc3cccc(C(F)(F)F)c3)c2)cc1 [BBAmF, reference compound] equals > 50 µg/mL

----------
Test system: Str. pn
protocol_text: Mean Streptococcus MIC
Format: cell-based
applied_conditions: Table 5, mean
outcome_measure: Mean Streptococcus MIC values Str. pn (micrograms/ml)
Your answer is read as micrograms/ml, so omit the unit and give the number.

Just so you know, measured Mean Streptococcus MIC values Str. pn for "O=C(c1ccc(O)c(C(=O)Nc2cccc(C(F)(F)F)c2)c1)c1ccc2ccccc2c1" came out at 0.84

Query "N#Cc1ccc(NC(=O)c2cc(C(=O)c3ccc4ccccc4c3)ccc2O)cc1" yields Mean Streptococcus MIC values Str. pn of 0.58

# Mean Streptococcus MIC values Str. pn (molecule: CCCCCCCCCCCCS(=O)(=O)c1ccc(O)c(C(=O)Nc2cccc(C(F)(F)F)c2)c1 [TMF-12, reference compound] ) is 0.65

For "N#Cc1cccc(NC(=O)c2cc(C(=O)c3ccc4ccccc4c3)ccc2O)c1" the molecule record lists Mean Streptococcus MIC values Str. pn as 0.91

----------
System: A. viscosus
protocol_text: MIC microdilution, gram positive
Format: cell-based, Actinomyces viscosus
applied_conditions: Table 2, Gram Positive
outcome_measure: MIC A. viscosus (micrograms/ml)
Express it in micrograms/ml; write the number only.

molecule	outcome_measure	reading
N#Cc1ccc(NC(=O)c2cc(C(=O)c3cccc4ccccc34)ccc2O)c2ccccc12	MIC A. viscosus	0.8
N#Cc1cccc(NC(=O)c2cc(C(=O)c3ccc4ccccc4c3)ccc2O)c1	MIC A. viscosus	1.6
CCCCCCCCCCCCS(=O)(=O)c1ccc(O)c(C(=O)Nc2cccc(C(F)(F)F)c2)c1 [TMF-12, reference compound]	MIC A. viscosus	1.6

Next item in the queue.
Looking up "N#Cc1ccc(NC(=O)c2cc(C(=O)c3ccc4ccccc4c3)ccc2O)cc1" , I see its MIC A. viscosus listed as 1.6

----------
The following compounds are shown together with reported MIC P. acnes 11828 values.
System: P. acnes 11828
protocol_text: MIC microdilution, gram positive
Format: cell-based, Propionibacterium acnes
applied_conditions: Table 1, Gram Positive
Experimental: The MIC's for the compounds were determined by a modified microdilution tube dilution method described in “Methods for Dilution Antimicrobial Susceptibility Tests for Bacteria that Grow Aerobically” (National Committee for Clinical Laboratory Standards Approved Standards, 1997, NCCLS document M7-A4). In general the modifications were made because of the unique growth requirements for the fastidious oral organisms and for those bacteria that require anaerobic conditions. […]
Answer with a number only, understood to be in micrograms/ml.

Use these answered entries as a reference point.
compound	test_target	value_units	MIC P. acnes 11828
O=C(c1ccc(O)c(C(=O)Nc2cccc(C(F)(F)F)c2)c1)c1ccc2ccccc2c1 [NA2mF]	P. acnes 11828	micrograms/ml	0.4
N#Cc1ccc(NC(=O)c2cc(C(=O)c3ccc4ccccc4c3)ccc2O)cc1 [NA2pC]	P. acnes 11828	micrograms/ml	6.3
N#Cc1cccc(NC(=O)c2cc(C(=O)c3ccc4ccccc4c3)ccc2O)c1 [NA2mC]	P. acnes 11828	micrograms/ml	12.5

Attention now shifts to the item below.
// sample CCCCCCCCCCCCS(=O)(=O)c1ccc(O)c(C(=O)Nc2cccc(C(F)(F)F)c2)c1 [TMF-12, reference compound] , its MIC P. acnes 11828 was 0.2

----------
Tested on: Fuso. 25586
protocol_text: MIC microdilution, gram negative
Assay type: cell-based, Fusobacterium nucleatum
applied_conditions: Table 3, Gram Negative
outcome_measure: MIC Fuso. 25586

"N#Cc1ccc(NC(=O)c2cc(C(=O)c3ccc4ccccc4c3)ccc2O)cc1" has a reported MIC Fuso. 25586 of 12.5 micrograms/ml

----------
System: S. species R
protocol_text: Staphylococcus MIC
Assay type: cell-based, staphylococcus species R
applied_conditions: second Table 5 (Example 5); strain 00-045-1209
outcome_measure: MIC S. species R (micrograms/ml)
Kindly answer with a numeric value in micrograms/ml, unit omitted.

molecule	MIC S. species R [micrograms/ml]
N#Cc1ccc(NC(=O)c2cc(C(=O)c3ccc4ccccc4c3)ccc2O)cc1 [NA2pC]	12.5

# next molecule below
Form: molecule = O=C(c1ccc(O)c(C(=O)Nc2cccc(C(F)(F)F)c2)c1)c1ccc2ccccc2c1 [NA2mF] ; MIC S. species R = 25.0

----------
System: P. acnes 6922
protocol_text: MIC microdilution, gram positive
Format: cell-based, Propionibacterium acnes
applied_conditions: Table 1, Gram Positive
outcome_measure: MIC P. acnes 6922 (micrograms/ml)
State the answer as a number, implicitly in micrograms/ml.

compound	value_units	MIC P. acnes 6922
CCCCCCCCCCCCS(=O)(=O)c1ccc(O)c(C(=O)Nc2cccc(C(F)(F)F)c2)c1 [TMF-12, reference compound]	micrograms/ml	0.4

Input "N#Cc1ccc(NC(=O)c2cc(C(=O)c3cccc4ccccc34)ccc2O)c2ccccc12" . Output MIC P. acnes 6922: 0.4

----------
Recorded below: MIC, system A. viscosus.
Give your result in µg/mL as a bare value.

Solved cases (4 shown):
mol_smiles	MIC, µg/mL
O=C(Nc1cccc(COc2ccccc2)c1)c1cc(C(=O)c2cccc3ccccc23)ccc1O	6.3
O=C(Nc1ccccc1)c1cc(C(=O)c2cccc3ccccc23)ccc1O	3.1
N#Cc1cccc(NC(=O)c2cc(C(=O)c3cccc4ccccc34)ccc2O)c1	3.2
O=C(Nc1cc(C(F)(F)F)cc(C(F)(F)F)c1)c1cc(C(=O)c2cccc3ccccc23)ccc1O	0.8

Shift focus to the following entry.
For record "O=C(Nc1cccc(C(F)(F)F)c1)c1cc(C(=O)c2c(O)ccc3ccccc23)ccc1O" the listed MIC is 0.8

----------
Test system: Lact 7496
We begin with a simple list: items and their reported MIC.
Give a bare numeral; the unit µg/mL is implied.

Some solved entries appear below for comparison.
molecule	MIC, µg/mL
N#Cc1cccc(NC(=O)c2cc(C(=O)c3ccc(-c4ccccc4)cc3)ccc2O)c1 [BPAmC, reference compound]	12.5
O=C(Nc1cccc(C(F)(F)F)c1)c1cc(C(=O)c2cccc3ccccc23)ccc1O	0.4
CCCCc1ccc(C(=O)c2ccc(O)c(C(=O)Nc3cccc(C(F)(F)F)c3)c2)cc1 [BBAmF, reference compound]	6.3

Documented MIC of "N#Cc1cccc(NC(=O)c2cc(C(=O)c3cccc4ccccc34)ccc2O)c1" : 3.1

Entry O=C(c1ccc(-c2ccccc2)cc1)c1ccc(O)c(C(=O)Nc2cccc(C(F)(F)F)c2)c1 [BPAmF, reference compound] , MIC reported as 6.3

----------
Test system: M. luteus
List of MIC values.
Express your answer in µg/mL, writing the number without its unit.

Illustrative cases are given below, each with its answer.
compound	value_units	reading
N#Cc1cccc(NC(=O)c2cc(C(=O)c3cccc4ccccc34)ccc2O)c1	µg/mL	3.1
CCCCc1ccc(C(=O)c2ccc(O)c(C(=O)Nc3cccc(C(F)(F)F)c3)c2)cc1 [BBAmF, reference compound]	µg/mL	3.1
O=C(Nc1cccc(C(F)(F)F)c1)c1cc(C(=O)c2cccc3ccccc23)ccc1O	µg/mL	0.8
O=C(c1ccc(-c2ccccc2)cc1)c1ccc(O)c(C(=O)Nc2cccc(C(F)(F)F)c2)c1 [BPAmF, reference compound]	µg/mL	3.1

Now consider a different compound.
I looked up N#Cc1cccc(NC(=O)c2cc(C(=O)c3ccc(-c4ccccc4)cc3)ccc2O)c1 [BPAmC, reference compound] and its MIC for M. luteus was 3.1

----------
Tested on: P. acnes 6922
protocol_text: MIC microdilution, gram positive
Format: cell-based, Propionibacterium acnes
applied_conditions: Table 1, Gram Positive
outcome_measure: MIC P. acnes 6922 (micrograms/ml)
Give the value in micrograms/ml but do not write micrograms/ml after it.

Example entries begin here.
mol_smiles	MIC P. acnes 6922 [micrograms/ml]
O=C(c1ccc(O)c(C(=O)Nc2cccc(C(F)(F)F)c2)c1)c1ccc2ccccc2c1	0.4
N#Cc1ccc(NC(=O)c2cc(C(=O)c3ccc4ccccc4c3)ccc2O)cc1	6.3

Reported MIC P. acnes 6922 for "N#Cc1cccc(NC(=O)c2cc(C(=O)c3ccc4ccccc4c3)ccc2O)c1" was 6.3

----------
Test system: Str. pn. R
protocol_text: Mean Streptococcus MIC
Assay type: cell-based
applied_conditions: Table 5, mean; strain resistant to penicillin and erythromycin
Below, each of the compounds is paired with its reported Mean Streptococcus MIC values Str. pn. R value.
Give your result in micrograms/ml as a bare value.

compound	test_target	Mean Streptococcus MIC values Str. pn. R [micrograms/ml]
N#Cc1ccc(NC(=O)c2cc(C(=O)c3ccc4ccccc4c3)ccc2O)cc1	Str. pn. R	3.12
O=C(c1ccc(O)c(C(=O)Nc2cccc(C(F)(F)F)c2)c1)c1ccc2ccccc2c1	Str. pn. R	0.78
N#Cc1cccc(NC(=O)c2cc(C(=O)c3ccc4ccccc4c3)ccc2O)c1	Str. pn. R	6.25

Would you kindly look at the next entry?
The reported value for CCCCCCCCCCCCS(=O)(=O)c1ccc(O)c(C(=O)Nc2cccc(C(F)(F)F)c2)c1 [TMF-12, reference compound] in terms of Mean Streptococcus MIC values Str. pn. R is 0.78
